# System Under Test: human calcitonin receptor (CTR) (Homo sapiens)
# Measurement Protocol: Calcitonin Receptor (CTR) cAMP Assay
# Condition Details: COS7-human CTR Clone #2 stable cell line, cAMP dynamic 2 kit, 30 min; read-out: Calcitonin Receptor cAMP Stimulation Activity: EC50
pEC50: −log10 of the molar value.
So basically: pEC50 at 9 or higher? That is 1.0. Lower than 9? That is 0.0.

Please review the entries below; each comes with its answer.
INSERT INTO results (compound, cat) VALUES
  ('O=C1c2c(nc(CCc3ccc(F)cc3)c(-c3n[nH]c(=O)o3)c2-c2ccc3c(c2)CCCN3Cc2ccc(F)cc2F)[C@@H]2CCCN12', 0.0),
  ('O=C1c2c(nc(CCc3ccc(F)cc3)c(-c3n[nH]c(=O)o3)c2-c2cc3ccnc(N[C@@H]4CCc5c(F)cc(F)cc54)c3s2)C23CC(CN12)C3', 1.0),
  ('O=C1c2c(nc(CCc3ccc(F)cc3)c(-c3noc(=O)[nH]3)c2-c2ccc3c(ccn3Cc3ccc(F)c(F)c3)c2)[C@@H]2CCCN12', 0.0),
  ('O=C1c2c(nc(CCc3ccc(F)cc3)c(-c3n[nH]c(=O)o3)c2-c2cc3ccnc(N[C@@H]4CCc5cc(F)c(F)cc54)c3s2)[C@@H]2CCCN12', 1.0);

// query Please check the record O=C1c2c(nc(CCC3CCOCC3)c(-c3cc(=O)[nH]o3)c2-c2cc3ccnc(N[C@@H]4CCc5ncccc54)c3s2)[C@@H]2CCCN12 and state if its pEC50 is at or above 9.
// result 0.0

// query Same question, COc1c(F)ccc2c1CC(F)(F)[C@@H]2Nc1nccc2cc(-c3c4c(nc(CCc5ccc(F)cc5)c3-c3n[nH]c(=O)o3)C35CC(CN3C4=O)C5)sc12 this time
// result 0.0

// query Same question, CC(c1ccc(C#N)c(F)c1)n1ccc2cc(-c3c4c(nc(CCC5CCOCC5)c3-c3cc(=O)[nH]o3)[C@@H]3CCCN3C4=O)ccc21 (stereo partly drawn) this time
// result 0.0

// query Same question, COc1cccc2c1CC[C@H]2Nc1nccc2cc(-c3c(-c4n[nH]c(=O)o4)c(CCc4ccc(F)cc4)nc4c3S(=O)(=O)CC4(C)C(C)C)sc12 (stereo partly drawn) this time
// result 0.0

====

# System Under Test: COS-7/AMY3 (human calcitonin receptor (CTR) and RAMP3) (Homo sapiens, UniProt O60896+P30988)
# Construct: expressed in transfected cells; host or cells: COS-7
# Sequence (P30988 25-474): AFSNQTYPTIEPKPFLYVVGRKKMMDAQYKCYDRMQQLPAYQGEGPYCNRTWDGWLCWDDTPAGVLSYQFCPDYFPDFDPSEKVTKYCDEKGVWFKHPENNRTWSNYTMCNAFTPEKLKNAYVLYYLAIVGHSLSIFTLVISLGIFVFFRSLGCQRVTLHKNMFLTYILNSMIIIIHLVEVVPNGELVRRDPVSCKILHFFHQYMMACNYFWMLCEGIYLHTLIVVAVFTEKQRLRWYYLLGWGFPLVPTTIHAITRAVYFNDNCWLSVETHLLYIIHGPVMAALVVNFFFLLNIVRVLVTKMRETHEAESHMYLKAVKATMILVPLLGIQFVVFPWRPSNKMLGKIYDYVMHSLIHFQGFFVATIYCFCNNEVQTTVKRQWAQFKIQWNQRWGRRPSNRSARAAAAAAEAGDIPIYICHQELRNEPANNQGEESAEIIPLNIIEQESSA
# Sequence (O60896 24-148): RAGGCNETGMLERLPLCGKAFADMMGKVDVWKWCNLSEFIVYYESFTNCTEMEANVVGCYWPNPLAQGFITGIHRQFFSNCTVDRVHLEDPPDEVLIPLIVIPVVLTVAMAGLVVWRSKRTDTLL
# Measurement Protocol: Amylin Receptor cAMP Assay II
# Format: cell-based
# Condition Details: values marked **: Amylin Receptor cAMP Assay II; COS-7/AMY3 cells, cAMP dynamic 2 kit, 30 min; read-out: Amylin Receptor cAMP Stimulation Activity: EC50
Measured Metric: log10(EC50) (log10 of the value in nM)
Please note: log10 values; quantity EC50; unit nM.

INSERT INTO measurements (compound, measured_metric, value_reported) VALUES
  ('CC(c1ccc(C#N)c(F)c1)n1c(=O)oc2cc(-c3c4c(nc(CCc5ccc(F)cc5)c3-c3n[nH]c(=O)o3)[C@@H]3CCCN3C4=O)ccc21 (stereo partly drawn)', 'log10(EC50)', 1.24);

// query Would you mind telling me what log10(EC50) value was observed for COc1cccc2c1CC[C@H]2Nc1nccc2cc(-c3c4c(nc(CCc5ccc(F)cc5)c3-c3n[nH]c(=O)o3)[C@]3(C)COCCN3C4=O)sc12 ?
// result 1.53

// query Same question, COc1cccc2c1CC[C@H]2Nc1nccc2cc(-c3c4c(nc(CCc5ccc(F)cc5)c3-c3n[nH]c(=O)o3)[C@H]3CCCN3C4=O)sc12 this time
// result 1.68

// query Same question, COc1c(F)ccc2c1CC[C@H]2Nc1ncnc2sc(-c3c4c(nc(CCc5ccc(F)cc5)c3-c3n[nH]c(=O)o3)C35CC(CN3C4=O)C5)cc12 this time
// result 0.20

// query Same question, COc1c(F)ccc2c1CC[C@H]2Nc1nccc2cc(-c3c4c(nc(CCc5ccc(F)cc5)c3-c3n[nH]c(=O)o3)[C@@H]3CCCN3C4=O)sc12 this time
// result 0.64

// query Same question, O=C1c2c(nc(CCc3ccc(F)cc3)c(-c3n[nH]c(=O)o3)c2-c2cc3ccnc(N[C@@H]4CCc5cc(F)c(F)cc54)c3s2)[C@@H]2CCCN12 this time
// result 0.14

The reported measurements were obtained from patent US12486269B2.
